Below is a list of entries, each paired with its recorded kon value.
Molecular target: T1, biotinylated recombinant human trimeric ARG2 enzyme (Avi-huARG2-His10) (human, UniProt P78540 23-354, biotinylated)
T1 construct: also called avi-Arg2-His10; bio-ARG2
T1 chain: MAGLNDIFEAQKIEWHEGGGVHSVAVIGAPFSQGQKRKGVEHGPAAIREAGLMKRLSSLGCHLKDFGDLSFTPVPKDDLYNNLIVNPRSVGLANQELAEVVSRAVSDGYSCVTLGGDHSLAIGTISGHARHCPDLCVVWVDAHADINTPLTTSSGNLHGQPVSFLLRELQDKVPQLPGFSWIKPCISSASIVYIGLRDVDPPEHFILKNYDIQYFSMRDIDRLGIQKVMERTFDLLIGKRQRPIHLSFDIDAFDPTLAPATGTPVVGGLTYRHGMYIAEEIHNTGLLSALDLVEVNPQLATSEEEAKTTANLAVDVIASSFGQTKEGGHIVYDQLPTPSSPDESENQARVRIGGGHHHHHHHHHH
Test: BLI (OctetRED), biotinylated ARG2 on streptavidin, Fab as analyte
Just the number in M⁻¹ s⁻¹, nothing appended.

C0021128 Fab (Fab, V domains shown, Human Fab) VH: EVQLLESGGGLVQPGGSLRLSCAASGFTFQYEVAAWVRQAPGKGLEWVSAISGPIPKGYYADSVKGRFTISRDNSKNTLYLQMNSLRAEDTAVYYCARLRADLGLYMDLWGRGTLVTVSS VL: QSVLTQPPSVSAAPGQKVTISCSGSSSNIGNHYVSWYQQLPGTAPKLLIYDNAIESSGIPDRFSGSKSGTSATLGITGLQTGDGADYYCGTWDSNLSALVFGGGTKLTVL ... 266000
C0021133 Fab (Fab, V domains shown, Human Fab) VH: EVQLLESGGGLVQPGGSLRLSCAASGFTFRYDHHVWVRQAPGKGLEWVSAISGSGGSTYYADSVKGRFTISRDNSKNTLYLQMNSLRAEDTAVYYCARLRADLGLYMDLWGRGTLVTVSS VL: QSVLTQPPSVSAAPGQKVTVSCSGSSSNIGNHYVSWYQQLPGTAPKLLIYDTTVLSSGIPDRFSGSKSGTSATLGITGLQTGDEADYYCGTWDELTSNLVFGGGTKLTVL ... 219000

Let's switch to this binder now.
Lab note: C0021141 Fab (Fab, V domains shown, Human Fab) VH: EVQLLESGGGLVQPGGSLRLSCAASGFTFYPDPQGWVRQAPGKGLEWVSAYGYGIGSTYYADSVKGRFTISRDNSKNTLYLQMNSLRAEDTAVYYCARLRADLGLYMDLWGRGTLVTVSS VL: QSVLTQPPSVSAAPGQEVTISCSGSSSNIDNHYVSWYQQLPGTAPKLLIYDNSERPSGIPDRFSGSKSGTSATLGITGLQTGDEADYYCGTWDSSLSALVFGGGTKLTVL gave kon of 326000

The measured values listed here are drawn from patent US20220403048A1.
